B1: Zinc finger homeobox protein 3, residues 2147 to 2202; numbered along this chain, Q15911 (parent)
chain: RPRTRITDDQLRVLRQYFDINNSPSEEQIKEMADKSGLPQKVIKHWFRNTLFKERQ

# Variants of: B1
# ASSAY NAME: abundance fitness (aPCA) (normalised: wild type 0, dead -1); higher = more abundant; growth selection in yeast, the domain comes from the species named
# RECORDED CONDITIONS: Homo sapiens
MEASUREMENT NAME: abundance fitness
Format: numeric value only, no unit, no commentary.

E54H: 0.085

# variant D34N ; its abundance fitness = 0.082

# variant I29E ; its abundance fitness = -0.334

# variant D9A ; its abundance fitness = 0.088

# variant E27Y ; its abundance fitness = -0.08

# variant N49D ; its abundance fitness = 0.001

# variant P39G ; its abundance fitness = -0.016

# variant D8G ; its abundance fitness = -0.063

# variant T4K ; its abundance fitness = -0.16

# variant E31Q ; its abundance fitness = -0.507

# variant R12H ; its abundance fitness = -0.128

# variant E31D ; its abundance fitness = 0.047

# variant K35A ; its abundance fitness = -0.279

# variant T50P ; its abundance fitness = -0.335

# variant R48T ; its abundance fitness = -0.07

# variant V42Y ; its abundance fitness = -0.18

# variant D19N ; its abundance fitness = -0.056

# variant T7V ; its abundance fitness = -0.208

# variant I29H ; its abundance fitness = -0.282
